The origin of these recorded values is the supplement of paper PMC8728848.

Study Target: Fuc(a1-2)[Gal(a1-3)]Gal(b1-4)GlcNAc(b1-6)GalNAc
Assay Overview: glycan array binding signal (z-score within array); higher = stronger binding
Run Conditions: glycan notation: IUPAC condensed, linker removed
This excerpt belongs to a sample that is enriched for the strongest signals.
binders and their reported glycan array binding signal (z-score)
// no unit, no text: just the number

SSR1 (Sclerotium rolfsii), A0A0M3KL30 (protein) TYKITVRVYQTNPDAFFHPVEKTVWKYANGGTWTITDDQHVLTMGGSGTSGTLRFHADNGESFTATFGVHNYKRWCDIVTNLAADETGMVINQQYYSQKNREEARERQLSNYQVKNAKGRNFQIVYTEAEGNDLHANLIIG :: -0.34

According to the records, this binder Epa3to1 (Candida glabrata) (protein) MGSSHHHHHHSSGLVPRGSHMKRELSSQNPFGYPIGCSPQDVAIIPGLTMELYSYPIVSGTPPNCYDASYVDPEYPRTGYLKRKMVGKSTGVTGNLNYKYSVEKACMVKYGNLPAGYNYNEPLTVSNFTMILYGYFKAQTTGLHTFFVNADDLLYINFGAGNAFDCCKREDSKTKLGEYVAYDIWHVDSSKNKVSLFLEKDLYYPIRMFFNNREYDSSLDLSFSVNGATDQISDFSGYLYSVPDQPDTCPAHIGYDTTCR displays glycan array binding signal (z-score) of -0.462

The recorded glycan array binding signal (z-score) for Epa21 (Candida glabrata) (protein) MGSSHHHHHHSSGLVPRGSHMASTPNIESHPQGCSPVDTSGIKPGLKMDLYRFPITPPGTGCWSWDWLTVTPDFPRSGYWKWPKIAEVDGVVGPLHLDSGHPTCDPLTSVLPHGFNYLQSITTTNFTMVLHGYFVPKQSGKYTFEFKADDALLLNLGAGNAFSCCDYNNSQYNQGEYLAYAIWSKNNQTATLYLEKGIYYPIRVFYHNRCCGAYMDVVYYFNDSPIPNRDFSGLLFSIPDSDSCDANI is -0.214
